- ASSAYED TARGET: Factor X, P00742
- Sequence (P00742 whole entry, looked up): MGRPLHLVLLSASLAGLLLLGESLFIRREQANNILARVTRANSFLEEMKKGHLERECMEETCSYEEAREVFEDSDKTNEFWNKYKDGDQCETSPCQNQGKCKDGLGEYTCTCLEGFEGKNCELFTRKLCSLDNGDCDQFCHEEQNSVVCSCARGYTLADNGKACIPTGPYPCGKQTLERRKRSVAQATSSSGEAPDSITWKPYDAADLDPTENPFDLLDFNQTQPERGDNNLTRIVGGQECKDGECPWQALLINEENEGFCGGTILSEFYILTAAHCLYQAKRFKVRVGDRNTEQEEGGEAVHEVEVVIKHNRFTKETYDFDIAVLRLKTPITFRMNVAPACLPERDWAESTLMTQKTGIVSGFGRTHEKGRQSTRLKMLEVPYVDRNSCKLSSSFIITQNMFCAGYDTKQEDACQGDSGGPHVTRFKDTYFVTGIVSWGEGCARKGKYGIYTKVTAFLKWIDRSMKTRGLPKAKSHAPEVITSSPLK
Item-by-item account of KM (FX activation by FIXa in Xase complex with FVIIIa, PC/PS vesicles, Ca2+)
QUANTITY: KM (FX activation by FIXa in Xase complex with FVIIIa, PC/PS vesicles, Ca2+) (µM)

* FIXa Y155F/R318Y/R338E/T343R/R403E/E410N (protein) chain 1: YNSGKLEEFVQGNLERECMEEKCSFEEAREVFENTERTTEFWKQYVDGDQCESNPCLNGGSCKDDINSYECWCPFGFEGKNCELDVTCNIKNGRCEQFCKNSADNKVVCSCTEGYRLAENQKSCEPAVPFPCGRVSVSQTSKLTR chain 2: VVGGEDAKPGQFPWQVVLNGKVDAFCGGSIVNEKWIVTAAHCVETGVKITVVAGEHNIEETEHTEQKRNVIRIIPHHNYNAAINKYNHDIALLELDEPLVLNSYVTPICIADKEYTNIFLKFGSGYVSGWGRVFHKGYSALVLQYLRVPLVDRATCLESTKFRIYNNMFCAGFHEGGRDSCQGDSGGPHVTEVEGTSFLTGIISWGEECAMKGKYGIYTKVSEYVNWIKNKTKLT | 0.0272
* FIXa R318Y/R338E/T343R/N346D/R403E/E410N (protein) chain 1: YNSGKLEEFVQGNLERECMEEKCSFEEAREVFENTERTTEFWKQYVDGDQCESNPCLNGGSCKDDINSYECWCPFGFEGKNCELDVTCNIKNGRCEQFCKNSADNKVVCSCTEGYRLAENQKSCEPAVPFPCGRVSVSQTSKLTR chain 2: VVGGEDAKPGQFPWQVVLNGKVDAFCGGSIVNEKWIVTAAHCVETGVKITVVAGEHNIEETEHTEQKRNVIRIIPHHNYNAAINKYNHDIALLELDEPLVLNSYVTPICIADKEYTNIFLKFGSGYVSGWGRVFHKGYSALVLQYLRVPLVDRATCLESTKFRIYDNMFCAGFHEGGRDSCQGDSGGPHVTEVEGTSFLTGIISWGEECAMKGKYGIYTKVSEYVNWIKNKTKLT | 0.067
